Molecular target: Glutamate receptor ionotropic, NMDA 2B (Homo sapiens, UniProt Q05586+Q13224)
Sequence (Q13224 whole entry, one chain of several): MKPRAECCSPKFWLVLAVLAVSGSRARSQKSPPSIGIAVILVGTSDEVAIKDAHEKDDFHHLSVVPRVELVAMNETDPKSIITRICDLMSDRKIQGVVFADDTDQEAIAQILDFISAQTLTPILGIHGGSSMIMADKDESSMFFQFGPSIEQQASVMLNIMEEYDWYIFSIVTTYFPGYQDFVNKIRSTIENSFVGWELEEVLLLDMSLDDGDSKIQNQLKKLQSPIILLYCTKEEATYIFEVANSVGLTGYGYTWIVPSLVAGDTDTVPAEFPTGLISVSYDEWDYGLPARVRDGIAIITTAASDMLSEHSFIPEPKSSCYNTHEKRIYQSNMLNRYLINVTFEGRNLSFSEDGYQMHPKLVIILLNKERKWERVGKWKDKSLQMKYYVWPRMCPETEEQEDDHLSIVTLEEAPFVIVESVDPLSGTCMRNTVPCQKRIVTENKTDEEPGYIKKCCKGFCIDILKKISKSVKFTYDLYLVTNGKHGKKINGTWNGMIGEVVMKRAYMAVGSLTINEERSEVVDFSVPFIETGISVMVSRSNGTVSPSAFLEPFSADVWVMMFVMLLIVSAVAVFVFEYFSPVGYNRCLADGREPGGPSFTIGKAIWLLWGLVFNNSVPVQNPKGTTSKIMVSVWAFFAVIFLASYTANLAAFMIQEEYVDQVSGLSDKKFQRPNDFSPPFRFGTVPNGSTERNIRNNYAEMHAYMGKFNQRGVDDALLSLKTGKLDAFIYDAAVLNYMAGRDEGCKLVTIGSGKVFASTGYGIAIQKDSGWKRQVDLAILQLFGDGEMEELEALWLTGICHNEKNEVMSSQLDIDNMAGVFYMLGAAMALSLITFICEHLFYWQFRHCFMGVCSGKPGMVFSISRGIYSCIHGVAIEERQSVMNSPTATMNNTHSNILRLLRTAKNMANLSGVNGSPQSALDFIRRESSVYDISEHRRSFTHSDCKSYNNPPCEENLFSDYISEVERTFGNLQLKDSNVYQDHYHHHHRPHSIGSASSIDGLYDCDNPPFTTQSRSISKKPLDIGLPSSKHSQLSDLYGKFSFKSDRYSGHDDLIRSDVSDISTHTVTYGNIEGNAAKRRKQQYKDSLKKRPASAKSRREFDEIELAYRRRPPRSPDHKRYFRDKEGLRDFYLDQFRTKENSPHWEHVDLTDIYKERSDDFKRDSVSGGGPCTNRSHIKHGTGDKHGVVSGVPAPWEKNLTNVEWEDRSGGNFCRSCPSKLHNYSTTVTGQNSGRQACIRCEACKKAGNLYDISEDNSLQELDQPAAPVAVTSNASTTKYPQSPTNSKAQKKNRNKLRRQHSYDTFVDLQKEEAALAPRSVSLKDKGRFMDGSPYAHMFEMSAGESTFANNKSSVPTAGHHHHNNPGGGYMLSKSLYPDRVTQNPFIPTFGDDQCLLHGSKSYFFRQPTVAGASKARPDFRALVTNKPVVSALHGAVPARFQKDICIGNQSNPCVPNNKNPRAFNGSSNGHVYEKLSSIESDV
Assay: Displacement of [3H]ifenprodyl from NMDA receptor NR2B subunit (unknown origin)
READOUT_NAME: pIC50
Recall that pIC50 is obtained by taking minus log10 of the concentration measured in molar.

Examples from the recorded data:
CCN1CCc2c(c3cc(F)ccc3n2CCC(=O)N2c3ccccc3Sc3ccccc32)C1 : 5.06
Cc1ccc2c(c1)c1c(n2CCC(=O)N(C)c2c(C(F)(F)F)nc3cc(C)ccn23)CCN(C)C1 : 4.49
CCc1ccc2c(c1)c1c(n2CCC(=O)N2c3ccccc3Sc3ccccc32)CCN(C)C1 : 4.81
Cc1ccc2c(c1)c1c(n2CCc2ccc(C)nc2)CCN(C)C1 [LATREPIRDINE] : 4.08
CCN1CCc2c(c3ccccc3n2CCC(=O)N2c3ccccc3Sc3ccccc32)C1 : 4.87

// switching to the query compound
[ask] Could you share what pIC50 was measured for "CCN1CCc2c(c3cc(C)ccc3n2-c2c(C(F)(F)F)nc3ccccn23)C1" , tested on Glutamate receptor ionotropic, NMDA 2B (Homo sapiens, UniProt Q05586+Q13224)?
[reply] 4.40

----------
Tested on: Bovine viral diarrhea virus 1
Assay: Antiviral activity against bovine viral diarrhea virus 1 infected in MDBK cells assessed as reduction in viral replication-induced cell destruction incubated for 3 days
Format: functional, organism-based
Conditions: Bovine viral diarrhea virus isolates and strains, 72 h
READOUT_NAME: pEC50
# pEC50: negative log10 of molar concentration; output just the value

[ask] Please give the measured pEC50 for this compound: "Cc1ncc2c3ccccc3n(C)c2c1C"
[reply] 8.46

----------
Target: Glutamate [NMDA] receptor
Assay: Displacement of [3H]ifenprodyl from NMDA receptor (unknown origin)
In this section, each of the compounds is paired with its reported pIC50.
A value of pIC50 is the negative decimal logarithm of a concentration given in moles per litre.

Cc1ccc2c(c1)c1c(n2CC(O)Cn2c3ccccc3c3ccccc32)CCN(C)C1 (configuration not stated) : 4.93

API: the following record is the query input.
[ask] Can you look up the measured pIC50 of CCN1CCc2c(c3cc(C)ccc3n2CC(O)Cn2c3ccccc3c3ccccc32)C1 (configuration not stated) for me?
[reply] 4.90

----------
Target: Glutamate receptor ionotropic, NMDA 2B (Homo sapiens, UniProt Q05586+Q13224)
Assay: Displacement of [3H]MK801 from NMDA receptor NR2B subunit (unknown origin)
As shown below, each of these molecules has a reported pIC50 value.
Notebook: values listed as pIC50 are -log10 of the concentration (mol/L).

Sample records with pIC50:
CCN1CCc2c(c3cc(F)ccc3n2CCC(=O)N2c3ccccc3Sc3ccccc32)C1 : 4.80
CCc1ccc2c(c1)c1c(n2CCC(=O)N2c3ccccc3Sc3ccccc32)CCN(C)C1 : 4.88

Now examine the next entry.
[ask] Find the recorded pIC50 belonging to "CCN1CCc2c(c3ccccc3n2CCC(=O)N2c3ccccc3Sc3ccccc32)C1" and report it.
[reply] 4.84

----------
Quick record of pIC50 values for UniProt P06276.
Sequence (P06276 whole entry): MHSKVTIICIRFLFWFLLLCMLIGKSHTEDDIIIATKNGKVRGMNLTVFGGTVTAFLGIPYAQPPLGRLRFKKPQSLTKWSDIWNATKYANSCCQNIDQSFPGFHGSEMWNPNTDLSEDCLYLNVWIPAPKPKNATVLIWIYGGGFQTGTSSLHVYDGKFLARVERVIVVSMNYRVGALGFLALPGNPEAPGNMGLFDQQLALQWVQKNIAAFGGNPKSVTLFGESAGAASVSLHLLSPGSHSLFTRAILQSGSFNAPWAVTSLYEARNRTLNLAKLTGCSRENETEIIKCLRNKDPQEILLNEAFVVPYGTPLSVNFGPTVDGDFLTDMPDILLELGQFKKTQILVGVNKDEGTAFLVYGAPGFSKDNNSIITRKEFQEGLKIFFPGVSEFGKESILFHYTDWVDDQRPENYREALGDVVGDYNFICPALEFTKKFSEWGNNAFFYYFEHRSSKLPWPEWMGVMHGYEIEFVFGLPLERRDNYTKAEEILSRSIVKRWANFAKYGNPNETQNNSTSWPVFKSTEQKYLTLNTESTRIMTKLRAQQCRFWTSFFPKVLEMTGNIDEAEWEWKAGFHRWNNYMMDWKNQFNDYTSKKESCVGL
As a rule, pIC50 stands for the negative log10 of the concentration, concentration in M.

Previously resolved entries follow.
COc1ccc2c(c1)c1c(n2CC(O)CN2c3ccccc3Sc3ccccc32)CCN(C)C1 (configuration not stated) : 6.41
Cc1ccc2c(c1)c1c(n2CC(O)Cn2c3c(c4ccccc42)CCCC3)CCN(C)C1 (configuration not stated) : 5.41
CCN1CCc2c(c3ccccc3n2CC(O)Cn2c3c(c4ccccc42)CCCC3)C1 (configuration not stated) : 5.56

[ask] Consider the molecule shown here: CN1CCc2c(c3ccccc3n2CC(O)Cn2c3c(c4ccccc42)CCCC3)C1 (configuration not stated) What is its recorded pIC50?
[reply] 5.97

[ask] Would you mind doing CCN1CCc2c(c3cc(C)ccc3n2CC(O)Cn2c3c(c4ccccc42)CCCC3)C1 (configuration not stated) as well?
[reply] 5.28

[ask] Query CCN1CCc2c(c3cc(F)ccc3n2CC(O)Cn2c3c(c4ccccc42)CCCC3)C1 (configuration not stated) next
[reply] 5.23

[ask] What about this molecule? CN1CCc2c(c3cc(F)ccc3n2CC(O)Cn2c3c(c4ccccc42)CCCC3)C1 (configuration not stated)
[reply] 5.30

----------
Molecular target: Cholinesterase (Equus caballus, UniProt P81908)
Sequence (P81908 whole entry): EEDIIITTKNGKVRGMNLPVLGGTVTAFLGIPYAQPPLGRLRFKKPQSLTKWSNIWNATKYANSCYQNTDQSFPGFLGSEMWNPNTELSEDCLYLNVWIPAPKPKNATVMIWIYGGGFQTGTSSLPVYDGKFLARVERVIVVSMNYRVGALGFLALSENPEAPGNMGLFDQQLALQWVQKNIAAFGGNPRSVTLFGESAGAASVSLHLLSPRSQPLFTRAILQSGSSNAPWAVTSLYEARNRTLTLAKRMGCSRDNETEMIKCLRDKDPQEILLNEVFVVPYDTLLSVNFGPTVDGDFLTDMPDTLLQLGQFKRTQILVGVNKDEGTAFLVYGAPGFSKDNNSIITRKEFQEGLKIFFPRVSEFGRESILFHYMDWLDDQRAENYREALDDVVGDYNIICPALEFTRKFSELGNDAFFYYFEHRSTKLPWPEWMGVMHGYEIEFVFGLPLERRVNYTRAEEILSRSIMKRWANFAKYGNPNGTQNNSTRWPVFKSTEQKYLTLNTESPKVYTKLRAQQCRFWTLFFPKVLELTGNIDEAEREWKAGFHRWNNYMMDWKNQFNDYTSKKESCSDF
Assay: Inhibition of horse serum BChE incubated for 10 mins by Ellman's method
READOUT_NAME: pIC50
Scale: negative log10 of molar concentration, which is what pIC50 denotes.

[ask] // lookup pIC50 for "CN1CCc2c(c3ccccc3n2Cc2ccccc2C(=O)NCCO[N+](=O)[O-])C1"
[reply] 5.43

----------
Experiment: Selectivity index, ratio of CC50 for cytotoxicity against MDBK cells to EC50 for antiviral activity against bovine viral diarrhea virus 1 infected in MDBK cells
Assay type: toxicity, cell-based
Settings: cattle, read-out: Ratio CC50/EC50
Quick reference for selectivity ratio among some molecules
Field format: numeric only.

Cc1ncc2c3ccccc3n(C)c2c1C : 2060

Pending molecule:
[ask] I am curious: what selectivity ratio value has been reported for "c1ccc2c(c1)[nH]c1ccncc12" ?
[reply] 20
